# Tgt: KATP channels (Homo sapiens)
# Construct: TE671 human medulloblastoma cells were obtained from ATCC
# Sequence (O60706 1-1549 isoform O60706-2): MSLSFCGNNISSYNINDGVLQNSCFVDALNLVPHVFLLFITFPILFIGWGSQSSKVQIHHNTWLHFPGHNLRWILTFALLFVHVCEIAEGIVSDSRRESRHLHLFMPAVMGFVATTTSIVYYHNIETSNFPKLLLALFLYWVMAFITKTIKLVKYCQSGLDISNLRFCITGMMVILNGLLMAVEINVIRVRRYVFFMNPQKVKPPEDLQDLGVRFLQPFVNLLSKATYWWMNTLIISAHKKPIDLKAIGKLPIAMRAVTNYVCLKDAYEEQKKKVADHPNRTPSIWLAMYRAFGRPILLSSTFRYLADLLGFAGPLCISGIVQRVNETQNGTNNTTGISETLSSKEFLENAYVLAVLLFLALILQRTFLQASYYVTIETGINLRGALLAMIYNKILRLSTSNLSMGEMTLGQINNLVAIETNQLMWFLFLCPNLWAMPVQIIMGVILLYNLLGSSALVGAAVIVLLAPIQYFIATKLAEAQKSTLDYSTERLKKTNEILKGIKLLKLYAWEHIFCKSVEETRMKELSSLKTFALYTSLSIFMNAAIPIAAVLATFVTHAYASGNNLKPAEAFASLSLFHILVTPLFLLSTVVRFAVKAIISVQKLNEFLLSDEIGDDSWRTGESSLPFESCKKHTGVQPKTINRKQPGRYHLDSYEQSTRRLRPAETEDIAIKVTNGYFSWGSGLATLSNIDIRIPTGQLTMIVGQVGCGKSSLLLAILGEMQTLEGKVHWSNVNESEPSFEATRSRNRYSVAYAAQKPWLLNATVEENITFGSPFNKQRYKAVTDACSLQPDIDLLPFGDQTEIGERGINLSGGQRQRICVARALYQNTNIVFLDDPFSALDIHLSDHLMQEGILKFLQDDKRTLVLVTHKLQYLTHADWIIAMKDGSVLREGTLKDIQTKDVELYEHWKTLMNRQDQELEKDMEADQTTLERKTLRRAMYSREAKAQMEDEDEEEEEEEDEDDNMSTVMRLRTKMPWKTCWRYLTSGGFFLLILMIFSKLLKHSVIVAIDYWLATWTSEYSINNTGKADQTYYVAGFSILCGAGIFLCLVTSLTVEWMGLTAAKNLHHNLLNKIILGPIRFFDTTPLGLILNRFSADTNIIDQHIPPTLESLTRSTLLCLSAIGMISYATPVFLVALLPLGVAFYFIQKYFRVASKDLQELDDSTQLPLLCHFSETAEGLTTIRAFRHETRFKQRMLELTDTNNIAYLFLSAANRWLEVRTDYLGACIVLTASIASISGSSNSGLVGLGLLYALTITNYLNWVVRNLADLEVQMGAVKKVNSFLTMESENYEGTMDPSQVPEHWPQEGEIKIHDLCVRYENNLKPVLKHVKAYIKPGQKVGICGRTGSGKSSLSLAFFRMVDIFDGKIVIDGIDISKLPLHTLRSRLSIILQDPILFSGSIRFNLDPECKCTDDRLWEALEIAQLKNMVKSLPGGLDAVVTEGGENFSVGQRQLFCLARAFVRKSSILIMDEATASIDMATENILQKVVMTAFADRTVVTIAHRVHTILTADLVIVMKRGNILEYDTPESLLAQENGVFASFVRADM
# Sequence (Q14654 whole entry partner): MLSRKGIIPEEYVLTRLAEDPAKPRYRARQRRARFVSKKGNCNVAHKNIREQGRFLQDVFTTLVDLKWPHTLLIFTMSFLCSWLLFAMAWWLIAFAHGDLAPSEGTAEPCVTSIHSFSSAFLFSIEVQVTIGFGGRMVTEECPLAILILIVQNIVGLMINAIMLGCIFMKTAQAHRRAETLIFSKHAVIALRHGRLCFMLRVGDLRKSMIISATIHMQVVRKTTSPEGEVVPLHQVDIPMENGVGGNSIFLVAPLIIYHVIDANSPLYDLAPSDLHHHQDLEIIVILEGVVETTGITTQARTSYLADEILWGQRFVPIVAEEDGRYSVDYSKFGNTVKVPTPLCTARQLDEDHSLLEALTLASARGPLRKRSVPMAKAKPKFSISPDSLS
# Test Description: Potassium Channel Assay (FLIPR membrane potential, KATP channel opening)
# Reported Conditions: TE671 human medulloblastoma cells, Membrane Potential Assay Dye, room temperature
Observed Property: EC50 (µM)

As a guide, the following entries are already answered.
[[record]]
compound = "CN(C)c1ccc(C(O)c2cnccc2C(=O)c2ccccc2)cc1 (stereo not drawn) [Compound 44]"
val = 17.4

[[record]]
compound = "O=C(c1ccccc1)c1ccncc1C(O)c1cccc(F)c1 (stereo not drawn) [Compound 47]"
val = 5.09

[[record]]
compound = "CCOC(=O)c1cnc2cc(C(F)(F)F)ccc2c1-c1cc(CO)ccc1OC [Compound 14]"
val = 4.56

[[record]]
compound = "COc1ccc(C(O)c2cnccc2-c2cccc(C#N)c2)cc1F (stereo not drawn) [Compound 37]"
val = 9.59

[[record]]
compound = "N#Cc1cccc(-c2ccncc2C(O)c2cccc(F)c2)c1 (stereo not drawn) [Compound 21]"
val = 23.2


[P] N#Cc1cccc(-c2ccncc2C(O)c2ccccc2)c1 (stereo not drawn) [Compound 19]
[Q] CSc1ccc(C(O)c2cnccc2-c2cccc(C#N)c2)cc1 (stereo not drawn) [Compound 34]
Problem: Lab note: check whether P or Q shows the higher recorded EC50. Lab note: record the label of whichever item you select.
Solution: Q
(Q: 20.8 µM, P: 9.63 µM)

[I] COc1cccc(C(O)c2cnccc2-c2cccc(C#N)c2)c1 (stereo not drawn) [Compound 29]
[II] Cc1ccc(C(O)c2cnccc2-c2cccc(C#N)c2)cc1 (stereo not drawn) [Compound 32]
Problem: Lab note: check whether I or II shows the higher recorded EC50. Lab note: record the label of whichever item you select.
Solution: I

[A] O=C(c1ccccc1)c1ccncc1C(O)c1ccccc1 (stereo not drawn) [Compound 43]
[B] CCOC(=O)c1cnc2cc(C(F)(F)F)ccc2c1-c1cc(C=O)ccc1OC [Compound 9]
Problem: Lower EC50: A or B ? Lab note: record the label of whichever item you select.
Solution: B
(B: 7.73 µM, A: 17.4 µM)
